Biological target: human MCH-1 receptor (Homo sapiens (Human), UniProt Q99705)
Sequence (Q99705 whole entry): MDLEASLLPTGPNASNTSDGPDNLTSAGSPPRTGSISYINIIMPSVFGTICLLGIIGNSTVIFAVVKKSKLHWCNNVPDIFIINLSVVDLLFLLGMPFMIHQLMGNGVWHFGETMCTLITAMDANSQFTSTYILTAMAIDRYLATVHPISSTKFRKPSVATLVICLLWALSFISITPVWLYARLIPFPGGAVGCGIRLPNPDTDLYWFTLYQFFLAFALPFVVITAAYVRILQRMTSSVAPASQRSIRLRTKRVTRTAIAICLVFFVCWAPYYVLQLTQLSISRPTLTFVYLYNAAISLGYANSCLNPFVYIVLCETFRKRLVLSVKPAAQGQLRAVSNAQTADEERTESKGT
Experiment: Binding assay for human melanin-concentrating hormone (MCH1) receptor
Conditions: membranes from CHO-K1 cells expressing human MCH1 receptor; 1.4 nM [3H]-labeled radioligand, 60 min at 25° C., pH 7.4; Ki from Cheng Prusoff equation; Hydrochloride
Record form. Attribute: Ki. Fill in for each entry.
Use nM as the unit, but write only the number.

-- ask Look at this compound and give its reported Ki. Cl.Cn1c2c(c3ccc(-n4ccc(OCc5ccccc5)cc4=O)cc31)CCN1CCCC21 (stereo not shown) [Example 2, Hydrochloride]
-- reply 14.9

-- ask Next compound: Cl.Cn1c2c(c3ccc(-n4ccc(OCc5ccc(F)cn5)cc4=O)cc31)CN1CCCCC1C2 (single isomer, unassigned; (-)) [Example 38, Hydrochloride]
-- reply 19

-- ask Next compound: Cl.Cn1c2c(c3ccc(-n4ccc(OCc5ccccc5)cc4=O)cc31)CCN1CCCC21 (single isomer, unassigned; (+)) [Example 4, Hydrochloride]
-- reply 12.3

-- ask Next compound: Cl.Cn1c2c(c3ccc(-n4ccc(OCc5ccccc5)cc4=O)cc31)CCN1CCCC21 (single isomer, unassigned; (-)) [Example 3, Hydrochloride]
-- reply 17.3

====

Target: human MCH-1 receptor (Homo sapiens (Human), UniProt Q99705)
Test: Binding assay for human melanin-concentrating hormone (MCH1) receptor
Settings: membranes from CHO-K1 cells expressing human MCH1 receptor; 1.4 nM [3H]-labeled radioligand, 60 min at 25° C., pH 7.4; Ki from Cheng Prusoff equation
Structures can show the parent of a compound that is named as a salt.
Label key: Yes means Ki under 20 nM; No means Ki of 20 nM or more.

-- ask Please state whether Ki is below 20 nM for Cl.Cn1c2c(c3ccc(-n4ccc(OCc5ccccc5)cc4=O)nc31)CN1CCCC1C2 (centres unmarked) [Example 50, Hydrochloride]
-- reply Yes

-- ask Next compound: O=c1cc(OCc2ccccc2)ccn1-c1ccc2c3c([nH]c2c1)CCN1CCCC31 (centres unmarked) [Example 24, Hydrochloride]
-- reply Yes

-- ask Next compound: Cc1ccc(COc2ccn(-c3ccc4c5c(n(C)c4c3)CCN3CCCC53)c(=O)c2)cn1 (centres unmarked) [Example 20, Dihydrochloride]
-- reply Yes

-- ask Next compound: Cl.Cn1c2c(c3ccc(-n4ccc(-c5ccc(C(F)(F)F)nc5)cc4=O)cc31)CN1CCCC1C2 (centres unmarked) [Example 30, Hydrochloride]
-- reply Yes

-- ask Next compound: Cn1c2c(c3ccc(-n4ccc(OCc5ccc(F)cn5)cc4=O)cc31)C1CCCN1CC2 (centres unmarked) [Example 19, Dihydrochloride]
-- reply Yes

-- ask Next compound: Cl.Cn1c2c(c3ccc(-n4ccc(-c5ccc(C(F)(F)F)nc5)cc4=O)cc31)CN1CCCCC1C2 (centres unmarked) [Example 36, Hydrochloride]
-- reply Yes

-- ask Next compound: Cl.Cn1c2c(c3ccc(-n4ccc(OCc5ccc(Cl)cc5F)cc4=O)nc31)C1CCCN1CC2 (centres unmarked) [Example 47, Hydrochloride]
-- reply Yes

-- ask Next compound: Cc1ccc(-c2ccn(-c3ccc4c5c(n(C)c4c3)CC3CCCN3C5)c(=O)c2)cn1 (centres unmarked) [Example 13, Hydrochloride]
-- reply No

-- ask Next compound: Cc1ccc(-c2ccn(-c3ccc4c5c(n(C)c4c3)CC3CCCCN3C5)c(=O)c2)cn1 (centres unmarked) [Example 35, Dihydrochloride]
-- reply No

-- ask Next compound: Cl.Cn1c2c(c3ccc(-n4ccc(-c5ccc(C(F)(F)F)nc5)cc4=O)nc31)CN1CCCC1C2 (centres unmarked) [Example 53, Hydrochloride]
-- reply No

-- ask Next compound: Cl.Cn1c2c(c3ccc(-n4ccc(OCc5ccc(F)cn5)cc4=O)cc31)CCN1CCCCC21 (centres unmarked) [Example 7, Hydrochloride]
-- reply No

-- ask Next compound: O=c1cc(OCc2ccc(Cl)cc2F)ccn1-c1ccc2c3c([nH]c2c1)CC1CCCN1C3 (centres unmarked) [Example 42, Hydrochloride]
-- reply Yes

-- ask Next compound: Cc1ccc(COc2ccn(-c3ccc4c5c(n(C)c4c3)CCN3CCCCC53)c(=O)c2)cn1 (centres unmarked) [Example 23, Dihydrochloride]
-- reply Yes
